Just for reference, patent US7312237B2 is where these values come from.

- TEST SUMMARY: In vivo antitumor testing, M5076 murine sarcoma
- Parameters: species or system mice
- CONDITION SUMMARY: (C57Bl/6×DBA/2)F1 hybrid, mouse, in vivo, iv, Compound 1 IV, q2dx5; read-out: OD (optimal dose or MTD)
EXPERIMENTAL READOUT: MTD (mg/kg)
I only need the number, in mg/kg, no unit after it.

q: If you can, please state the reported MTD value of C/C(=C\c1csc(C)n1)[C@@H]1C[C@@H]2O[C@]2(C)CCC[C@H](C)[C@H](O)[C@@H](C)C(=O)C(C)(C)[C@@H](O)CC(=O)N1 (relative stereo) .
a: 8.4

====

- TEST SUMMARY: in vivo
- CONDITION SUMMARY: nude, mouse, in vivo, iv, OD (optimal dose or MTD), Compound 1 IV, q2dx5
EXPERIMENTAL READOUT: MTD (mg/kg)
I only need the number, in mg/kg, no unit after it.

q: Report MTD for C/C(=C\c1csc(C)n1)[C@@H]1C[C@@H]2O[C@]2(C)CCC[C@H](C)[C@H](O)[C@@H](C)C(=O)C(C)(C)[C@@H](O)CC(=O)N1 (relative stereo) please.
a: 4.8

====

- TEST SUMMARY: In vivo antitumor testing, A2780 in nude mice
- CONDITION SUMMARY: nude, mouse, in vivo, iv, Compound 1 IV, q4dx3; read-out: OD (optimal dose or MTD)
EXPERIMENTAL READOUT: MTD (mg/kg)
Only the number, expressed in mg/kg, is required.

q: I am curious: what MTD value has been reported for C/C(=C\c1csc(C)n1)[C@@H]1C[C@@H]2O[C@]2(C)CCC[C@H](C)[C@H](O)[C@@H](C)C(=O)C(C)(C)[C@@H](O)CC(=O)N1 (relative stereo) ?
a: 16

====

- TEST SUMMARY: In vivo antitumor testing, Pat-7 in nude mice
- CONDITION SUMMARY: nude, mouse, in vivo, po, Compound 1 PO, q2dx5; read-out: OD (optimal dose or MTD)
EXPERIMENTAL READOUT: MTD (mg/kg)
Write the answer as a number in mg/kg, unit excluded.

q: // MTD lookup, key: C/C(=C\c1csc(C)n1)[C@@H]1C[C@@H]2O[C@]2(C)CCC[C@H](C)[C@H](O)[C@@H](C)C(=O)C(C)(C)[C@@H](O)CC(=O)N1 (relative stereo)
a: 60

====

- TEST SUMMARY: In vivo antitumor testing, A2780 in nude mice
- CONDITION SUMMARY: nude, mouse, in vivo, iv, Compound 1 IV, q2dx5; read-out: OD (optimal dose or MTD)
EXPERIMENTAL READOUT: MTD (mg/kg)
Express your answer in mg/kg, writing the number without its unit.

q: Please give the measured MTD for this compound: C/C(=C\c1csc(C)n1)[C@@H]1C[C@@H]2O[C@]2(C)CCC[C@H](C)[C@H](O)[C@@H](C)C(=O)C(C)(C)[C@@H](O)CC(=O)N1 (relative stereo)
a: 6.3

====

- TEST SUMMARY: In vivo antitumor testing, Pat-7 in nude mice
- CONDITION SUMMARY: nude, mouse, in vivo, iv, Compound 1 IV, q4dx3; read-out: OD (optimal dose or MTD)
EXPERIMENTAL READOUT: MTD (mg/kg)
Reply numerically in mg/kg, unit not repeated.

q: State the recorded MTD for this entry: C/C(=C\c1csc(C)n1)[C@@H]1C[C@@H]2O[C@]2(C)CCC[C@H](C)[C@H](O)[C@@H](C)C(=O)C(C)(C)[C@@H](O)CC(=O)N1 (relative stereo)
a: 15

====

- System: panel of tumor cell lines
- TEST SUMMARY: Oncology Diverse Cell Assay, panel of 21 cell lines
- Assay type: cell-based
- CONDITION SUMMARY: 18 of the 21 cell lines tested
EXPERIMENTAL READOUT: IC50

q: Name the recorded IC50 for C/C(=C\c1csc(C)n1)[C@@H]1C[C@@H]2O[C@]2(C)CCC[C@H](C)[C@H](O)[C@@H](C)C(=O)C(C)(C)[C@@H](O)CC(=O)N1 (relative stereo) .
a: 1.4 to 6 nM

====

- TEST SUMMARY: In vivo antitumor testing, Pat-7 in nude rats
- CONDITION SUMMARY: nude, rat, in vivo, iv; read-out: OD (optimal dose or MTD)
EXPERIMENTAL READOUT: MTD (mg/kg)
Give just the numeric value; mg/kg need not be written.

q: If you can, please state the reported MTD value of C/C(=C\c1csc(C)n1)[C@@H]1C[C@@H]2O[C@]2(C)CCC[C@H](C)[C@H](O)[C@@H](C)C(=O)C(C)(C)[C@@H](O)CC(=O)N1 (relative stereo) .
a: 3

====

- TEST SUMMARY: In vivo antitumor testing, M5076 murine sarcoma
- Set-up: species or system mice
- CONDITION SUMMARY: (C57Bl/6×DBA/2)F1 hybrid, mouse, in vivo, iv, Compound 1 IV, q4dx3; read-out: OD (optimal dose or MTD)
- Protocol: The murine fibrosarcoma M5076 was also employed. The human tumors were maintained in Balb/c nu/nu nude mice. M5076 was maintained in C57BL/6 mice. Tumors were propagated as subcutaneous transplants in the appropriate mouse strain using tumor fragments obtained from donor mice. All tumor implants for efficacy testing were subcutaneous (sc). The MTD was frequently equivalent to OD. When death occurs, the day of death was recorded. And, Log cell kill=T−C÷(3.32×TVDT)
EXPERIMENTAL READOUT: MTD (mg/kg)
Entry rule: numbers only, all in mg/kg.

q: Could you share which MTD value was measured for C/C(=C\c1csc(C)n1)[C@@H]1C[C@@H]2O[C@]2(C)CCC[C@H](C)[C@H](O)[C@@H](C)C(=O)C(C)(C)[C@@H](O)CC(=O)N1 (relative stereo) ?
a: 24
